target: estrogen receptor (ER) (Homo sapiens (Human), UniProt P03372); assay: Inhibition of the binding of estrogen (E) to estrogen receptor (ER), MCF-7/ERE-luciferase reporter cells; conditions: MCF-7/ERE-luciferase cells, 0.1 nM estradiol, 24 hours; read-out: IC50 value of inhibition effect on the binding of E to ER
Sequence (P03372 whole entry): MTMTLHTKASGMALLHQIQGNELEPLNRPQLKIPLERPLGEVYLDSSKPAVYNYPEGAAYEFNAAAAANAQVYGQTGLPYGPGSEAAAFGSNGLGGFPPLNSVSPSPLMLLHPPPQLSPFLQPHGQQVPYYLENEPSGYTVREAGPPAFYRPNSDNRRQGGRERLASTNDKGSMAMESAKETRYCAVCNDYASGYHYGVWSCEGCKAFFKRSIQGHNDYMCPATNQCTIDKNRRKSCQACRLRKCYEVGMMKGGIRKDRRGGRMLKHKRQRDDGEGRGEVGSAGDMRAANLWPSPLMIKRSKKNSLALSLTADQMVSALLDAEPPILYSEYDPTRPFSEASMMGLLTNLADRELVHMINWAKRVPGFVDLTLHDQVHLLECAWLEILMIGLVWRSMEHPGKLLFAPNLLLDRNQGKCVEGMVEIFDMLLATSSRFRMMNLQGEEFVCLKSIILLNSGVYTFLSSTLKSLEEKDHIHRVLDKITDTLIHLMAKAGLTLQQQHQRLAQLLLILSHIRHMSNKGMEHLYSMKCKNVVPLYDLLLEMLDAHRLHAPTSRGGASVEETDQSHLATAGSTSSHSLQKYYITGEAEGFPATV
# maps each entry to its pIC50
The value called pIC50 is obtained by taking minus log10 of the concentration in mol/L.

C[C@@H]1Cc2c(ccc3[nH]ncc23)[C@@H](c2c(F)cc(/C=C/C(=O)O)cc2F)N1CC(C)(C)F	10.40

[Q] Can you share its pIC50? I mean this compound: CC1Cc2c(oc3ccc(-c4cnn(C)c4)cc23)C(c2c(F)cc(/C=C/C(=O)O)cc2F)N1CC(C)(C)F (stereo not drawn)
[A] 9.68

[Q] Can you share its pIC50? I mean this compound: C[C@H]1Cc2c(oc3ccccc23)[C@H](c2c(F)cc(/C=C/C(=O)O)cc2F)N1CC(C)(C)F
[A] 7.47

[Q] Can you share its pIC50? I mean this compound: C[C@@H]1Cc2cc(-c3cnn(C(F)F)c3)ccc2[C@@H](c2c(F)cc(/C=C/C(=O)O)cc2F)N1CC(C)(C)F
[A] 9.54

[Q] Can you share its pIC50? I mean this compound: CC1Cc2cc(OCC#N)ccc2C(c2c(F)cc(/C=C/C(=O)O)cc2F)N1CC(C)(C)F (stereo not drawn)
[A] 7.42
